Reported protease activity in the course of time of storage at 37° C. values for the following compounds.
- subject_of_test: Savinase® 16.0L (Lederbergia lenta)
- Construct: purchased Sigma-Aldrich
- Sequence (P29600 1-269): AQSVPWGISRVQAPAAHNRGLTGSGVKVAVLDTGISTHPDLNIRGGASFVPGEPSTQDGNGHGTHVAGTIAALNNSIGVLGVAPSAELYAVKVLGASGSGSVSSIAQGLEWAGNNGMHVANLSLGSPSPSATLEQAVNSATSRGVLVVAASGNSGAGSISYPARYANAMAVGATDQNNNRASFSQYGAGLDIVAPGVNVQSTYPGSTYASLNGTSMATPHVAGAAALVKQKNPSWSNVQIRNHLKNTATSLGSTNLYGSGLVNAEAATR
- test_summary: Protease storage stability in liquid formulations at 37° C. (Suc-AAPF-pNA assay)
- Assay type: biochemical
- condition: base formulation V, 2.0 wt% compound, 0.7 wt% Savinase 16.0 L; 3 d
Give just the number in %; leave the unit off.

Problem: # lookup: protease activity in the course of time of storage at 37° C. of CCOC(=O)CC(O)(CC(=O)OCC)C(=O)OCC [A.1, Triethylcitrate]
Result: 94

More entries:
Problem: protease activity in the course of time of storage at 37° C. for CCCCOC(=O)CC(O)(CC(=O)OCCCC)C(=O)OCCCC [A.3, Tributylcitrate] ?
Result: 98

Problem: For the compound shown here, O=C(O)CC(O)(CC(=O)O)C(=O)O [B.1, citric acid, reference compound] , give the reported protease activity in the course of time of storage at 37° C..
Result: 93

Problem: Can you look up the measured protease activity in the course of time of storage at 37° C. of O=C(CC(O)(CC(=O)OCc1ccccc1)C(=O)OCc1ccccc1)OCc1ccccc1 [A.8, Tribenzylcitrate] for me?
Result: 96

----------
- subject_of_test: Savinase® 16.0L (Lederbergia lenta, UniProt P29600)
- Construct: purchased Sigma-Aldrich
- test_summary: Protease storage stability in liquid formulations at 37° C. (Suc-AAPF-pNA assay)
- Assay type: biochemical
- condition: base formulation II, 2.5 wt% compound, 0.7 wt% Savinase 16.0 L; 3 d
Structures can show the parent of a compound that is named as a salt.
Listed compounds paired with reported protease activity in the course of time of storage at 37° C.
Write the number in % without appending the unit.

Problem: Return reported protease activity in the course of time of storage at 37° C.; argument: CCOC(=O)CC(O)(CC(=O)OCC)C(=O)OCC [A.1, Triethylcitrate]
Result: 100

Problem: Reported protease activity in the course of time of storage at 37° C. for CCOC(=O)CC(CC(=O)OCC)(OC(C)=O)C(=O)OCC [A.5, Acetyltriethylcitrate] : what is it?
Result: 101

Problem: I am curious: what protease activity in the course of time of storage at 37° C. value has been reported for O=C(CC(O)(CC(=O)OCc1ccccc1)C(=O)OCc1ccccc1)OCc1ccccc1 [A.8, Tribenzylcitrate] ?
Result: 94

Problem: Quick check: protease activity in the course of time of storage at 37° C. of CC(=O)OCC(COC(C)=O)OC(C)=O [B.4, glyceroltriacetate, reference compound] ?
Result: 87

Problem: What value of protease activity in the course of time of storage at 37° C. has been reported for the following compound? CCOC(=O)CC(O)(CC(=O)O)C(=O)O (stereo not drawn) [A.6, Monoethylcitrate]
Result: 102

// next item, protease activity in the course of time of storage at 37° C. requested
Problem: Name the recorded protease activity in the course of time of storage at 37° C. for O=C(O)CC(O)(CC(=O)O)C(=O)O [B.2, citric acid trisodium salt, reference compound] .
Result: 95

----------
- subject_of_test: Savinase® 16.0L (Lederbergia lenta, UniProt P29600)
- Construct: purchased Sigma-Aldrich
- Sequence (P29600 1-269): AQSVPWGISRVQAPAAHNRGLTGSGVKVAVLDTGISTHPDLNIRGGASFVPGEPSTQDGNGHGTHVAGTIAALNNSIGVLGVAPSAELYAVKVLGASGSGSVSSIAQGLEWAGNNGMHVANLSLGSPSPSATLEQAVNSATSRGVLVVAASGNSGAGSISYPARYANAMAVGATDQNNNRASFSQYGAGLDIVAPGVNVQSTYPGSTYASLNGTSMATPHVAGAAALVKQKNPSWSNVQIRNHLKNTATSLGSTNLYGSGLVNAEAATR
- test_summary: Protease storage stability in liquid formulations at 37° C. (Suc-AAPF-pNA assay)
- Type: biochemical
- condition: base formulation V, 2.0 wt% compound, 0.7 wt% Savinase 16.0 L; 14 d
measurement_name: protease activity in the course of time of storage at 37° C. (%)
Expressed in %, but write only the number.

Below are worked cases with known answers.
Problem: For Savinase® 16.0L (Lederbergia lenta, UniProt P29600), provide protease activity in the course of time of storage at 37° C. of O=C(O)CC(O)(CC(=O)O)C(=O)O [B.1, citric acid, reference compound] please.
Result: 75

Problem: // map CCCCOC(=O)CC(O)(CC(=O)OCCCC)C(=O)OCCCC [A.3, Tributylcitrate] to recorded protease activity in the course of time of storage at 37° C. (system: Savinase® 16.0L (Lederbergia lenta, UniProt P29600))
Result: 88

Problem: Under Savinase® 16.0L (Lederbergia lenta, UniProt P29600): protease activity in the course of time of storage at 37° C. value of CCOC(=O)CC(O)(CC(=O)OCC)C(=O)OCC [A.1, Triethylcitrate] ?
Result: 86

Others:
Problem: Observed protease activity in the course of time of storage at 37° C. on Savinase® 16.0L (Lederbergia lenta, UniProt P29600) for O=C(CC(O)(CC(=O)OCc1ccccc1)C(=O)OCc1ccccc1)OCc1ccccc1 [A.8, Tribenzylcitrate] , please.
Result: 86

----------
- subject_of_test: Savinase® 16.0L (Lederbergia lenta, UniProt P29600)
- Construct: purchased Sigma-Aldrich
- Sequence (P29600 1-269): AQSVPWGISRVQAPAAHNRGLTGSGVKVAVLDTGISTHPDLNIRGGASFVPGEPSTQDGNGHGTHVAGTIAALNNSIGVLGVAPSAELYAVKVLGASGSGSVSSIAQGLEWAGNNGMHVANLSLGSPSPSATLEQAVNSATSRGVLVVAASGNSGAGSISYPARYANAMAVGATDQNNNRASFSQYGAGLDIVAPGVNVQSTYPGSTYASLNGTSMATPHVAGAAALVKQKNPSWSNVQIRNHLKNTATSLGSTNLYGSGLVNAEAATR
- test_summary: Protease storage stability in liquid formulations at 37° C. (Suc-AAPF-pNA assay)
- Format: biochemical
- condition: base formulation I, 2.5 wt% compound, 0.7 wt% Savinase 16.0 L; 35 d
Catalogue of protease activity in the course of time of storage at 37° C. values
The reply should contain only the number, in %.

Recorded results for 5 molecules are shown here.
Problem: Any idea what protease activity in the course of time of storage at 37° C. came out for CCCOC(=O)CC(O)(CC(=O)OCCC)C(=O)OCCC [A.2, Tripropylcitrate] on Savinase® 16.0L (Lederbergia lenta, UniProt P29600)?
Result: 76

Problem: Give recorded protease activity in the course of time of storage at 37° C. with Savinase® 16.0L (Lederbergia lenta, UniProt P29600) for the following molecule: CC(=O)OCC(COC(C)=O)OC(C)=O [B.4, glyceroltriacetate, reference compound]
Result: 56

Problem: Request body: readout protease activity in the course of time of storage at 37° C., system Savinase® 16.0L (Lederbergia lenta, UniProt P29600), query CCCCOC(=O)CC(CC(=O)OCCCC)(OC(C)=O)C(=O)OCCCC [A.4, Acetyltributylcitrate] . Return the value.
Result: 79

Problem: Recall the recorded protease activity in the course of time of storage at 37° C. for O=C(O)CC(O)(CC(=O)O)C(=O)O [B.1, citric acid, reference compound] with Savinase® 16.0L (Lederbergia lenta, UniProt P29600) and state it.
Result: 57

Problem: What protease activity in the course of time of storage at 37° C. appears in the records for this molecule with Savinase® 16.0L (Lederbergia lenta, UniProt P29600)? CCOC(=O)C(=O)OCC [B.3, diethyloxalate, reference compound]
Result: 58

Others:
Problem: State its protease activity in the course of time of storage at 37° C. on Savinase® 16.0L (Lederbergia lenta, UniProt P29600): CCOC(=O)CC(O)(CC(=O)OCC)C(=O)OCC [A.1, Triethylcitrate]
Result: 72

Problem: Reported protease activity in the course of time of storage at 37° C. for Savinase® 16.0L (Lederbergia lenta, UniProt P29600), given CCOC(=O)CC(CC(=O)OCC)(OC(C)=O)C(=O)OCC [A.5, Acetyltriethylcitrate] ?
Result: 78

Measured values drawn from patent US20210395650A1 for this set.
